# Test system: Puccinia triticina; Synonym: Puccinia recondite f. sp. tritici
# measurement_notes: Wheat brown rust (PUCCRT) disease control on wheat seedlings
# Format: in vivo
# condition_label: Puccinia triticina, 24 h; Wheat Brown Rust; 1 Day Protectant; low volume application, 121.5 g/H; read-out: Disease Control PUCCRT 1 DP 121.5 g/H
# Experimental: Technical grades of materials were dissolved in acetone, which were then mixed with nine volumes of water containing 110 ppm Triton X-100. The fungicide solutions were applied onto wheat seedlings using an automated booth sprayer to run-off. All sprayed plants were allowed to air dry prior to further handling. All fungicides were evaluated using the aforementioned method for their activity vs. all target diseases. […]
Give measured pest or weed control at 121.5 g/ha for each item. Keep answers brief.

Enquiry: # get_value(readout='pest or weed control at 121.5 g/ha', item= COc1ccnc(C(=O)N[C@H]2CCC[C@H](OCC(C)C)[C@@H](OC)[C@H](C)OC2=O)c1OC(C)=O )
Return: 80 to 100%

Enquiry: # get_value(readout='pest or weed control at 121.5 g/ha', item= C=C(C)CO[C@H]1CCC[C@H](NC(=O)c2nccc(OC)c2OC(C)=O)C(=O)O[C@@H](C)[C@@H]1OC )
Return: 0 to 80%

Enquiry: # get_value(readout='pest or weed control at 121.5 g/ha', item= C=C(C)c1ccc(O[C@H]2[C@H](C)OC(=O)[C@@H](NC(=O)c3nccc(OC)c3OC(C)=O)CCC[C@@H]2OCCC)cc1 )
Return: 80 to 100%

Enquiry: # get_value(readout='pest or weed control at 121.5 g/ha', item= COCCC(=O)Oc1c(OC)ccnc1C(=O)N[C@H]1CCC[C@H](OCC(C)C)[C@@H](OC)[C@H](C)OC1=O )
Return: 80 to 100%

Enquiry: # get_value(readout='pest or weed control at 121.5 g/ha', item= CCCO[C@H]1CCC[C@H](NC(=O)c2nccc(OC)c2OCOC(C)=O)C(=O)O[C@@H](C)[C@@H]1Oc1ccc(F)cc1 )
Return: 80 to 100%

Enquiry: # get_value(readout='pest or weed control at 121.5 g/ha', item= COc1ccnc(C(=O)N[C@H]2CCC[C@H](Oc3ccccc3)[C@@H](OC(=O)C3CCCC3)[C@H](C)OC2=O)c1OC(C)=O )
Return: 80 to 100%

Enquiry: # get_value(readout='pest or weed control at 121.5 g/ha', item= COc1ccnc(C(=O)N[C@H]2CCC[C@H](Oc3ccccc3)[C@@H](OC(=O)C3CCCC3)[C@H](C)OC2=O)c1OC(=O)C1CC1 )
Return: 0 to 80%
